Taken from patent US20240360228A1.

target: T1, human CCR8 (human, UniProt P51685 1-355); assay: flow blocking, PBMC CCR8+CD4+; competitor PE-AB5
T1 construct: Native CCR8 on human PBMC (CCR8+ CD3+ or CCR8+ CD4+ lymphocytes); also called chemokine (C-C motif) receptor 8
T1 sequence (P51685 whole entry): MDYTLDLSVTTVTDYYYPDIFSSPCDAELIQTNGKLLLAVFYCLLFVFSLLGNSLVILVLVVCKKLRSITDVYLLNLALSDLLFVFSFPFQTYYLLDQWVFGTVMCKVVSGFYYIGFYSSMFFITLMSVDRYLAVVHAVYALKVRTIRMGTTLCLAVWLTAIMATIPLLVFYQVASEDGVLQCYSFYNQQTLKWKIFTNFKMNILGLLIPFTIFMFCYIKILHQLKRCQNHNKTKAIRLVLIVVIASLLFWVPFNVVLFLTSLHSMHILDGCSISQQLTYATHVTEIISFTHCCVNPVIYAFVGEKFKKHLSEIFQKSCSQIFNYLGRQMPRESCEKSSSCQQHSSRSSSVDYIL
parameter: % Blocking (%)

binder	parameter	output unit	test value
AB1 (antibody, V domains shown, Hybridoma monoclonal (mouse or rat); Same VH/VL entries as AB2; also called antibody 1; clone 1) VH: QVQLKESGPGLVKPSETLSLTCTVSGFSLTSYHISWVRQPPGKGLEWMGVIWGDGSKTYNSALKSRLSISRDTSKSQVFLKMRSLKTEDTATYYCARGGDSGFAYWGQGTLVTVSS VL: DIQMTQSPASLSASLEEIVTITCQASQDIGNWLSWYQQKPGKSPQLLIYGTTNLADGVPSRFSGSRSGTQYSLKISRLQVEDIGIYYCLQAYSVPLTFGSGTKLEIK	% Blocking	%	89.6
AB2 (antibody, V domains shown, Hybridoma monoclonal; Same VH/VL entries as AB1; also called antibody 2; clone 2) VH: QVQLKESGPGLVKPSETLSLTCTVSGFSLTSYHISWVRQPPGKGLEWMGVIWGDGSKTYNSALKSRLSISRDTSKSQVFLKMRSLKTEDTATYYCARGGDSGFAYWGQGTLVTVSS VL: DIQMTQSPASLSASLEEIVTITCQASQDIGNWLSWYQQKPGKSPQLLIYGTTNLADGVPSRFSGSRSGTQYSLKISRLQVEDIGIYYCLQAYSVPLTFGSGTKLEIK	% Blocking	%	90.1
AB13 (antibody, V domains shown, Hybridoma monoclonal; also called antibody 13; clone 13) VH: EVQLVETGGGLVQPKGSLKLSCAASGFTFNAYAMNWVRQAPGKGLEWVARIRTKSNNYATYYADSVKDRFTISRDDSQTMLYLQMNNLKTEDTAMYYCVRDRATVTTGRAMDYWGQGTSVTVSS VL: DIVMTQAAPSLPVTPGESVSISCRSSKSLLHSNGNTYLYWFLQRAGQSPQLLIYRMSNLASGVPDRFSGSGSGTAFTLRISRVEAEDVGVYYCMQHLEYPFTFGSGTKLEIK	% Blocking	%	-7.92
